The measured values listed here are drawn from PubChem BioAssay (NCI).

system: MDA-MB-435 melanoma; assay: NCI-60 one-dose screen, 48 h; settings: 10 µM unless noted
Compounds without any hit were thinned out: in the full panel of roughly 83,000, 20% have a hit. Activity calls are given as the source filed them. How the source made its calls: active means growth percent below 10; inactive means the rest.
Outcome (select one): true = active, false = inactive

Exam item: Please indicate how the test categorized "NC(N)=Nc1nc2ccccc2n2c1nc1ccccc12" .
Marked response: false

Exam item: Recorded test call requested for "O=C(O)c1ccc2c(c1Cl)C(=O)c1ccccc1C2=O"
Marked response: false

Exam item: Could you please tell me the result logged for "COCCN(C(=O)c1ccc(F)cc1F)c1c(N)n(Cc2ccccc2)c(=O)[nH]c1=O" in this assay?
Marked response: false

Exam item: In this assay, the call recorded for CC(C)CC(NC(=O)CN(Cc1ccccc1)S(C)(=O)=O)C(=O)O (centres undefined) was what?
Marked response: false

Exam item: Field: outcome | Entry: "CCCCCCCCn1ccc2cc(NC(=O)Cn3cc(CN4CCCC4)nn3)ccc21"
Marked response: true

Exam item: Test call for this compound, please: "COc1ccc(/C=c2\nc3n(-c4ccccc4)c4nc5c6c(sc5c(=N)n4n-3c2=O)CCCC6)cc1"
Marked response: false

Exam item: Recorded test outcome, item "NCCCNc1nc2ccccc2c2c(=O)c3cccc(Cl)c3sc12"
Marked response: true

Exam item: Fill in: this test's call for "COC(=O)/C=C1\S/C(=N\NS(=O)(=O)c2ccc(C)cc2)N(c2ccccc2)C1=O" is ___
Marked response: false

Exam item: Query: recorded result category for "CCCCCc1nc2c(c3c1CCCC3)CCCC2" in this test
Marked response: false

Exam item: Write down the call the test reported for this compound. Item: "O=C(O)CN1C(=O)CCC1=O"
Marked response: false

Exam item: What call does the record list for COCCc1ccc(OCC(O)CNC(C)C)cc1 (centres undefined) ?
Marked response: false

Exam item: Test call for this compound, please: "C=C1C(=O)O[C@H]2[C@H]1CC/C(CNC(=O)/C=C/c1ccc(Cl)cc1Cl)=C\CC[C@@]1(C)O[C@@H]21"
Marked response: true

Exam item: Entry "COC(=O)c1c2c(c(C)[n+]([O-])c1C)C(=O)C(NCc1ccc(F)c(Cl)c1)=CC2=O" : call = ?
Marked response: true

Exam item: Could you please tell me the result logged for "COc1cc(-c2nn(-c3ccccc3)cc2-c2ccnc(NCCNS(=O)(=O)c3ccc(Cl)cc3)n2)ccc1Cl" in this assay?
Marked response: false

Exam item: What did this assay record as the result for "COc1cccc(-c2nn(-c3ccccc3)cc2-c2ccnc(NCCNC(=O)c3ccccc3)c2)c1" ?
Marked response: false

Exam item: Tell me the recorded outcome of this test for "N/C(=N/N=C/c1ccccc1)N/N=C\c1ccccc1" .
Marked response: true

Exam item: Give the logged outcome of this assay for the following compound: "CCCCn1c(=O)c2c(nc(NCCc3ccc(O)c(O)c3)n2CCC)n(CCCC)c1=O"
Marked response: false

Exam item: Called result for "CCOC(=O)c1c(-c2ccc(Cl)cc2)c(C#N)c(=O)n(-c2ccccc2CC)c1N"
Marked response: false

Exam item: Status in this test for "C=CCOC1=CC(=O)c2ccccc2C1=O" ?
Marked response: true

Exam item: # outcome recorded in this test, key = "Cc1ccc(Cc2cnc(NC(=O)c3ccc4noc(-c5ccccc5)c4c3)s2)cc1"
Marked response: false

Exam item: Could you check what this test reported for CC1O[C@@H](OC2[C@H](OC(=O)/C=C/c3ccc(O)c(O)c3)C(COC3O[C@H](C)C(O)C(O)[C@@H]3O)O[C@@H](OCCc3ccc(O)c(O)c3)[C@H]2O)[C@@H](O)C(O)[C@H]1O (some centres undefined) ?
Marked response: false

Exam item: // return assay outcome for "O=C(Nc1cccc2c(O)c(N=Nc3ccc(S(=O)(=O)Nc4nccs4)cc3)cc(N=Nc3ccc(S(=O)(=O)Nc4nccs4)cc3)c12)C(Cl)Cl"
Marked response: false

Exam item: Entry O=C1Nc2ccc(F)cc2C12Nc1cc(Cl)ccc1S2 (centres undefined) : call = ?
Marked response: false

Exam item: I would be grateful if you could indicate the recorded call for Cc1ccc(C(=O)C2=C(O)C(=O)N(Cc3cccnc3)C2c2ccccc2F)o1 (centres undefined) .
Marked response: false

Exam item: Tell me the recorded outcome of this test for "Cc1c(C(=O)N[C@@H](Cc2ccccc2)C(=O)C(=O)NCCc2ccccc2)[nH]c2ccccc2c1=O" .
Marked response: false

Exam item: Any idea what this test logged for "Cc1cc[c-]cc1.Fc1c[c-]c(-c2ccccn2)c(F)c1.[Pt+2].c1ccc(P(C[PH+](c2ccccc2)c2ccccc2)c2ccccc2)cc1" ?
Marked response: true

Exam item: Just curious, what result did "COC(=O)c1c2c(c(C)[n+]([O-])c1C)C(=O)C(NCc1ccc(F)cc1)=CC2=O" get here?
Marked response: true

Exam item: Recorded test outcome, item "CCc1ccccc1NC(=O)/C(C#N)=C/c1ccc(OC)cc1"
Marked response: false

Exam item: Hello, I am checking results. What call was entered for "N#Cc1c(N)nn(C(=O)c2ccc(NC(=O)c3ccccn3)cc2)c1-c1ccc(Cl)cc1" ?
Marked response: false

Exam item: Recorded test call requested for "C[n+]1cc2cc(C(N)=O)[nH]c3c(=N)c(Cl)c(N)c1c23"
Marked response: false

Exam item: Can you look up the reported call for "Cc1c2c(c(C)c3c1oc1cc(O)ccc13)C(=O)N(CCN1CCCCC1)C2=O" for me?
Marked response: false

Exam item: Check the results log: what was the call for "O=C1/C(=C\c2c[nH]c3ccccc23)c2ccccc2N1c1c(Cl)cccc1Cl" ?
Marked response: true

Exam item: # fetch the recorded call for "O=C(CSc1nnc(-c2ccc(NC(=O)c3cccnc3)cc2)o1)Nc1cccc(Br)c1" here
Marked response: false

Exam item: Per the assay record, what outcome was assigned to "COc1ccc(-c2nc3ccc4[nH]ncc4c3c3c2CCCC3)cc1B(O)O" ?
Marked response: false

Exam item: Outcome logged for "CCN(CC)S(=O)(=O)c1cccc(-c2ccc3c(NC(=O)C4CC4)n[nH]c3c2)c1" in this assay:
Marked response: true

Exam item: Kindly provide the recorded test outcome for the following compound: "COc1ccc(/C=C/c2c(C(=O)/C=C/c3ccc(F)cc3)c(C)nc3ccccc23)cc1"
Marked response: false

Exam item: Could you check what this test reported for "Cc1cc(NCc2cc(Nc3ccnc4cc(Cl)ccc34)ccc2F)nc(N2CCN(C)CC2)n1" ?
Marked response: true

Exam item: Recorded call for "COc1cccc(-c2nc3sccn3c2-c2ccnc(NCCNS(=O)(=O)c3ccc(C(F)(F)F)cc3)c2)c1" ?
Marked response: false

Exam item: // param item: "Cn1cc2c(c1)-c1nc(Nc3ccccc3)ncc1CC2" ; yields the recorded call
Marked response: false
